endpoint.name: melting point

Query: Please list melting point recorded for the compound `CCN1CCC(c2ccc3nc(-c4ccc5c(cnn5C)c4)cc(=O)n3c2)CC1`
Response: 184 to 186 °C

Query: Please list melting point recorded for the compound `COCCN1CCN(c2ccc3nc(-c4cc(Cl)c5nc(C)cn5c4)cc(=O)n3c2)C[C@@H]1C`
Response: 179 to 183 °C

Query: Please list melting point recorded for the compound `Cc1nc2ccc(-c3cc(=O)n4cc(N5CCCN(C)CC5)ccc4n3)cc2o1`
Response: 146 to 150 °C

====

Tested on: SMN2 minigene mRNA (SMN2-A minigene) in HEK293H cells
protocol.text: SMN2 minigene mRNA splicing RT-qPCR assay in cultured cells
Format: cell-based, human
experimental.setup: Homo sapiens, HEK293-H; concentration increasing full length SMN2 mRNA 1.5-fold relative to vehicle-treated cells; HEK293H cells with SMN2-A minigene, 24 hours, 7-point concentration data; read-out: EC1.5x for production of full length SMN2 mRNA
Collected EC (1.5-fold increase) values appear next to each entry.

# annotated cases, reported EC (1.5-fold increase) shown
Query: Please list EC (1.5-fold increase) recorded for the molecule `Cc1ccc(-c2cc(=O)n3cc(N4CCNCC4)ccc3n2)cc1C`
Response: 1 to 3 µM

Query: Please list EC (1.5-fold increase) recorded for the molecule `Cc1nc2ccc(-c3cc(=O)n4cc(N5CCC(N)CC5)ccc4c3)cc2o1`
Response: 1 to 3 µM

Query: Please list EC (1.5-fold increase) recorded for the molecule `COc1ccc(-c2cc(=O)n3cc(N4CCN[C@@H](C)C4)ccc3n2)cc1OC(F)(F)F`
Response: 0.3 to 1 µM

Query: Please list EC (1.5-fold increase) recorded for the molecule `CCc1nc(C)cn2nc(-c3cc(=O)n4cc(N5CCCN(C)CC5)ccc4n3)cc12`
Response: < 0.1 µM

Query: Please list EC (1.5-fold increase) recorded for the molecule `CCc1nc(C)cn2nc(-c3cc(=O)n4cc(N5C[C@H]6CNC[C@H]6C5)ccc4n3)cc12`
Response: < 0.1 µM

Continuing:
Query: Please list EC (1.5-fold increase) recorded for the molecule `CCCc1nc(C)cn2nc(-c3cc(=O)n4cc(C5CCNCC5)ccc4n3)cc12`
Response: < 0.1 µM

Query: Please list EC (1.5-fold increase) recorded for the molecule `Cc1nc2cc(-c3cc(=O)n4cc(N5CCCNCC5)ccc4n3)ccc2s1`
Response: 0.3 to 1 µM
